Items are presented alongside their recorded IC50.
molecular target: mutant Kras (Homo sapiens, UniProt P01116); experiment: Nucleotide exchange assay (SOS1-mediated, BODIPY FL GDP fluorescence); conditions: 250 nM or 500 nM GDP-loaded K-Ras, SOS1 catalytic domain, fluorescent labelled GDP 0.36 μM, 70 minutes; read-out: IC50 against mutant Kras
Sequence (P01116 whole entry G12D, form open, the tested form may be a part): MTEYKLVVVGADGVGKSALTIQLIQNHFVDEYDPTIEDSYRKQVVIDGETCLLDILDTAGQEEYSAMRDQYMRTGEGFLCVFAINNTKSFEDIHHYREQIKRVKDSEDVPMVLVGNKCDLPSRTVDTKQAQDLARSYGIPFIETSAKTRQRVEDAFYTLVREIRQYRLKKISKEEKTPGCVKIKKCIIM

Solved entries:
Nc1nc2c(-c3cc4nc(OCC56CCCN5CCC6)nc(N5CC6CCC(C5)N6)c4nc3O)ccc(F)c2s1 [Compound 16]	< 500 nM
COc1nc2c(N3C4CCC3CNC4)nc(OC[C@@]34CCCN3C[C@H](F)C4)nc2cc1-c1ccc(F)c2sc(N)nc12 [Compound 15]	< 500 nM
CN1CCC[C@H]1COc1nc(N2C[C@@H](N)[C@@H](F)C2)c2cc(Cl)c(-c3cccc4sc(N)nc34)c(F)c2n1 [Compound 10]	500 to 5000 nM
Nc1nc2c(-c3cnc4c(N5CC6CCC(C5)N6)nc(OC[C@@]56CCCN5C[C@H](F)C6)nc4c3)ccc(F)c2s1 [Compound 13]	< 500 nM

Turning now to a further record.
Give IC50 for CN1CCC[C@H]1COc1nc(N2C[C@H](N)C[C@H](O)C2)c2cc(Cl)c(-c3cccc4sc(N)nc34)c(F)c2n1 [Compound 3]
< 500 nM

###

Items are presented alongside their recorded pIC50.
molecular target: mutant Kras (Homo sapiens, UniProt P01116); test: Nucleotide exchange assay (SOS1-mediated, BODIPY FL GDP fluorescence); details: 250 nM or 500 nM GDP-loaded K-Ras, SOS1 catalytic domain, fluorescent labelled GDP 0.36 μM, 70 minutes; read-out: IC50 against mutant Kras
pIC50: −log10 of the molar value.

Solved entries:
Cc1c(N)sc2c(F)ccc(-c3c(Cl)cc4c(N5C[C@H]6CC[C@@H](C5)N6)nc(OC[C@@]56CCCN5C[C@H](F)C6)nc4c3F)c12	> 6.30
CN1CCC[C@H]1COc1nc(N2CCC[C@@H](N)C2)c2cc(Cl)c(-c3cccc4sc(N)nc34)c(F)c2n1	> 6.30
COc1nc2c(N3CC4CCC(C3)N4)nc(OC[C@@]34CCCN3C[C@H](F)C4)nc2cc1-c1ccc(F)c2sc(N)nc12	> 6.30

Tell me pIC50 of COc1nc2c(N3CC4CCC(C3)N4)nc(OCC34CCCN3CCC4)nc2cc1-c1ccc(F)c2sc(N)nc12 when tested on mutant Kras (Homo sapiens, UniProt P01116).
> 6.30

Tell me pIC50 of CN1CCC[C@H]1COc1nc(N2C[C@H](N)C[C@@H](O)C2)c2cc(Cl)c(-c3cccc4sc(N)nc34)c(F)c2n1 when tested on mutant Kras (Homo sapiens, UniProt P01116).
> 6.30

Tell me pIC50 of CN1CCC[C@H]1COc1nc(N2C[C@H](N)C[C@@H](F)C2)c2cc(Cl)c(-c3cccc4sc(N)nc34)c(F)c2n1 when tested on mutant Kras (Homo sapiens, UniProt P01116).
5.30 to 6.30

###

target: mutant Kras (Homo sapiens, UniProt P01116); experiment: Nucleotide exchange assay (SOS1-mediated, BODIPY FL GDP fluorescence); settings: 250 nM or 500 nM GDP-loaded K-Ras, SOS1 catalytic domain, fluorescent labelled GDP 0.36 μM, 70 minutes; read-out: IC50 against mutant Kras
Items are presented alongside their recorded IC50.

CN1CCC[C@H]1COc1nc(N2CC[C@H](N)C2)c2cc(Cl)c(-c3cccc4sc(N)nc34)c(F)c2n1 [Compound 11]	< 500 nM
CN1CCC[C@H]1COc1nc(N2C[C@H](N)C[C@H](F)C2)c2cc(Cl)c(-c3cccc4sc(N)nc34)c(F)c2n1 [Compound 6]	500 to 5000 nM
Nc1nc2c(-c3c(Cl)cc4c(N5CCNCC5)nc(OCC56CCCN5CCC6)nc4c3F)cccc2s1 [Compound 12]	< 500 nM
N#Cc1c(N)sc2c(F)ccc(-c3c(Cl)cc4c(N5C[C@H]6CC[C@@H](C5)N6)nc(OC[C@@]56CCCN5C[C@H](F)C6)nc4c3F)c12 [Compound 19]	< 500 nM
COc1nc2c(N3CCNCC3)nc(OC[C@@]34CCCN3C[C@H](F)C4)nc2cc1-c1ccc(F)c2sc(N)nc12 [Compound 18]	500 to 5000 nM
Cc1c(N)sc2cccc(-c3c(Cl)cc4c(N5C[C@H]6CC[C@@H](C5)N6)nc(OC[C@@]56CCCN5C[C@H](F)C6)nc4c3F)c12 [Compound 22]	< 500 nM
Nc1sc2c(F)ccc(-c3c(Cl)cc4c(N5C[C@H]6CC[C@@H](C5)N6)nc(OC[C@@]56CCCN5C[C@H](F)C6)nc4c3F)c2c1C1CC1 [Compound 20]	< 500 nM

Turning now to a further record.
Tell me IC50 of CN1CCC[C@H]1COc1nc(N2CC(N)CC(O)C2)c2cc(Cl)c(-c3cccc4sc(N)nc34)c(F)c2n1 (some centres unmarked) [Compound 5] when tested on mutant Kras (Homo sapiens, UniProt P01116).
< 500 nM
